# assay-system: T1, Human CXCR2 (human, UniProt P25025 1-360)
# T1 sequence: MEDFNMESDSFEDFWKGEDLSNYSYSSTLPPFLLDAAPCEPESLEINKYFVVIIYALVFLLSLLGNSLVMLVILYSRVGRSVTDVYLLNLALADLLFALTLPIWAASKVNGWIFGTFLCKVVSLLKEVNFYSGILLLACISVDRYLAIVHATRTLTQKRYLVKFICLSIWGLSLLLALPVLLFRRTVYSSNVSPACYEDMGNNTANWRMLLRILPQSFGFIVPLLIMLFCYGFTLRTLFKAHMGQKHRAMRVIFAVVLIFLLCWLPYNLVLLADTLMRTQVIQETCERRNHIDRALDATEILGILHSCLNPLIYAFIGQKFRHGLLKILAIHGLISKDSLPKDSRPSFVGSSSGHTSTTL
# experimental-protocol: cell-based or functional assay
Rule: Human WBSC IC50 (rhGROα) of 10 nM or more gives True; anything lower gives False.

q: Could you tell me if the measured Human WBSC IC50 (rhGROα) of 54B12 (VHH, Tested as periplasmic extract (pAX50) and as purified His6-tagged protein (pAX100); also called 054B12; not shown: C-terminal c-myc tag and His6 tag coded by the vector) VHH: EVQLVESGGGLVQAGGSLTLSCAVSGSTFRINTMGWYRRAPGKQRELVAARDRGGYINYVDSVKGRFTVSRDNAKPTMYLQMNSLKPEDTAVYYCHAGTQDRTGRNFDRWGQGTQVTVSS reaches 10 nM or more?
a: True

q: Could you tell me if the measured Human WBSC IC50 (rhGROα) of 97A9 (VHH, Tested as periplasmic extract (pAX50) and as purified His6-tagged protein (pAX100); also called 097A09; not shown: C-terminal c-myc tag and His6 tag coded by the vector) VHH: EVQLVESGGGLVQPGGSLRLSCVASGSIVRINTMGWYRQTPGKQRELVADITSGGNINYIDAVKGRFTISRDNTKNTVYLQMNSLKPEDTAVYYCNAEIVVLVGVWTQRARTGNYWGQGTQVTVSS reaches 10 nM or more?
a: True

q: Could you tell me if the measured Human WBSC IC50 (rhGROα) of 163E3 (VHH, Tested as periplasmic extract (pAX50) and as purified His6-tagged protein (pAX100); also called 163E03; not shown: C-terminal c-myc tag and His6 tag coded by the vector) VHH: EVQLVESGGGLVQPGGSLRLSCVASGRIFSSNAMGWFRQAPGKEREFVAAITWRSGGSAYYADSAKGRFTISRDNAKNTVYLQMNSLKPEDTAVYYCAAGGSSWLSFPPDYWGQGTQVTVSS reaches 10 nM or more?
a: False

q: Could you tell me if the measured Human WBSC IC50 (rhGROα) of 127D1 (VHH, Tested as periplasmic extract (pAX50) and as purified His6-tagged protein (pAX100); also called 127D01; not shown: C-terminal c-myc tag and His6 tag coded by the vector) VHH: EVQLVESGGGLVQAGESLRLSCAASGSTFDFKVMGWYRQPPGKQREGVAAIRLSGNMHYAESVKGRFTISKANAKNTVYLQMNSLRPEDTAVYYCKVNIRGQDYWGQGTQVTVSS reaches 10 nM or more?
a: False

q: Could you tell me if the measured Human WBSC IC50 (rhGROα) of 2B2 (VHH, Tested as periplasmic extract (pAX50) and as purified His6-tagged protein (pAX100); also called 002B02; not shown: C-terminal c-myc tag and His6 tag coded by the vector) VHH: EVQLVESGGELVQPGGSLRLSCAASGSILTINAMGWYRQAPGKQRELVVRRTRGGSTTYQDSVKGRFTISADIAKKTMYLQMNSLKPEDTAVYYCMLDDRGGVYWGQGTQVTVSS reaches 10 nM or more?
a: True

q: Could you tell me if the measured Human WBSC IC50 (rhGROα) of 163D2 (VHH, Tested as periplasmic extract (pAX50) and as purified His6-tagged protein (pAX100); also called 163D02; not shown: C-terminal c-myc tag and His6 tag coded by the vector) VHH: EVQLVESGGGLVQAGGSLRLSCAASGRTFSDYAMGWFRQAPGKEREFVAAITWNGGRVFYTASVKGRFTISRDNAKNTMYLQMNSLKPEDTAVYYCAADKDRRTDYLGHPVAYWGQGTQVTVSS reaches 10 nM or more?
a: False
